- Tested on: NCI-H23 lung
- assay-info: NCI-60 one-dose screen, 48 h (100 = growth as untreated, 0 = no growth, -100 = all killed)
- run-parameters: 10 µM
The panel holds about 83,000 compounds, 20% with a hit somewhere; the sample as a whole holds those more often.
Class field: derived from growth; ranges one: < 50%; two: ≥ 50% and < 90%; three: ≥ 90%

O=C(c1ccccc1)N(C(=O)c1ccccc1)N1CCCC1 ... three
CC(=O)OC/C=C(/C)C[P+](c1ccccc1)(c1ccccc1)c1ccccc1 ... two
CC(=O)Oc1cc(OC(C)=O)c2ccccc2c1OC(C)=O ... two
CC[N+](CC)=c1ccc2nc3c(cc(NCc4ccccc4)c4ccccc43)oc-2c1 ... one
CSc1nc(S(C)(=O)=O)nc2[nH]c(=O)[nH]c12 ... three

Returns: class label. Input: CC(=O)OC1CC2C(C)(C)CCC[C@]2(C)C2=C1C(O)=C(C(C)C)C(=O)C2=O (some centres not stated)
one

Returns: class label. Input: `COc1ccc2nc3cc(Cl)ccc3c(Nc3cc(CN4CCCC4)c(O)c(CN4CCCC4)c3)c2n1`
one

Returns: class label. Input: `C#CCOc1c(OC)cc(C(=O)/C(C)=C/c2cccc(N=[N+]=[N-])c2)cc1OC`
one

Returns: class label. Input: `CN1CCN(c2cc3c(cc2F)c(=O)c(C(=O)O)cn3-c2ccc(F)cc2)CC1`
three

Returns: class label. Input: `CN(C)CCN(Cc1ccccc1)c1ccc2ccccc2n1`
three

====

- System: UACC-257 melanoma
- assay-info: NCI-60 one-dose screen, 48 h
- run-parameters: 10 µM
The panel holds about 83,000 compounds, 20% with a hit somewhere; the sample as a whole holds those more often. Active and inactive are the calls of the source. How the source made its calls: active means growth percent below 10; inactive means the rest.
// allowed return values: label 1 = active, label 0 = inactive

CCC(CC)n1c(C)cc(=O)n1C(CC)CC ... label 0
C[C@]12CC[C@@H]3c4ccc(OS(=O)(=O)O)cc4CC[C@H]3[C@@H]1CC[C@@H]2NS(=O)(=O)c1ccc(-c2ccccc2)cc1 ... label 0
COc1cc2nc(SCC(=O)Nc3cc(OC)c(OC)c(OC)c3)n(Cc3ccccc3)c(=O)c2cc1OC ... label 0
CC(C)=CCC/C(C)=C/CC/C(C)=C/CC/C=C(\C)CC/C=C(\C)CCC(=O)Nc1ccn(C2OC(CO)C(O)C2(F)F)c(=O)n1 (centres undefined) ... label 0
CCN(CC)CC(=O)N(CC)c1ccc(C)c(Cl)c1 ... label 0
COc1cc2c(cc1NC(=O)C(Cl)Cl)-c1ccc(NC(=O)C(Cl)Cl)cc1C2 ... label 1

Just curious, what result did `O=C1Cc2cc(CCN3CCN(c4nsc5ccccc45)CC3)c(Cl)cc2N1` get here?
label 0

Just curious, what result did `COc1ccc(CCN2CCC(Nc3nc4ccccc4n3Cc3ccc(F)cc3)CC2)cc1` get here?
label 1

Just curious, what result did `CC(=O)Nc1ccc2c(c1)C(=O)c1cccc(C(=O)O)c1-2` get here?
label 0

====

- System: SK-MEL-2 melanoma
- assay-info: NCI-60 one-dose screen, 48 h
- run-parameters: 10 µM
- Method: Growth inhibition of the SK-MEL-2 human tumor cell line is measured as a screen for anti-cancer activity. Cells are grown in 96 well plates and exposed to the test compound for 48 hours. Compounds are tested at a single concentration, which is 10^-5 M for most compounds. The reported endpoint is percent growth (GI% or GIPRCNT), where numbers from 0 - 100% represent growth inhibition, and numbers from -100% - 0 represent cell death. For example, a value of 40 represents 60% growth inhibition. […]
Compounds without any hit were thinned out: in the full panel of roughly 83,000, 20% have a hit. Active and inactive are the calls of the source. How the source made its calls: active means growth percent below 10; inactive means the rest.
// allowed return values: 1.0 for active, 0.0 for inactive

COc1ccc(-c2nn(-c3cccc(Cl)c3)cc2-c2c(C#N)c(=O)n3[nH]c(-c4ccc(C)cc4)nc3c2C#N)cc1 ... 0.0
CN1CCN(CCCn2c(=O)c3sc4ncccc4c3n3nnc(-c4ccccc4)c23)CC1 ... 1.0
COc1cc2c3c(n([C@@H]4CCOC4)c(=O)c2cc1OC)-c1cc2c(cc1C3=O)OCO2 ... 0.0
CC(C)c1cc(N=O)cc(C(C)C)c1O ... 0.0
CN(C)CCC1(c2ccccc2)CCN(C)C1=O (stereo not given) ... 0.0

Just curious, what result did O=C(CCC(C(=O)c1ccccc1)c1ccccc1)c1ccccc1 (stereo not given) get here?
0.0

Just curious, what result did `COc1ccc2c(c1)C(=O)/C(=C/c1ccc([N+](=O)[O-])o1)O2` get here?
1.0

Just curious, what result did C1CN(CC2CCC(CN3CCOCC3)O2)CCO1 (stereo not given) get here?
0.0

Just curious, what result did `CS(=O)(=O)c1nccc(-c2c(-c3cccc(OCc4ccc(F)cc4)c3)nc3sccn23)n1` get here?
0.0

Just curious, what result did `CNC(=O)c1cn2c3c(c(N4CCN(C)CC4)c(F)cc3c1=O)OC[C@@H]2C` get here?
0.0
